Reported Activity is given for each of the following compounds.
biological target: Dual specificity tyrosine-phosphorylation-regulated kinase 1A (Homo sapiens); assay: Inhibition of human full length recombinant DYRK1A assessed as remaining activity using RRRFRPASPLRGPP as substrate at 100 nM by [gamma-32P]ATP binding based scintillation counting based analysis relative to control

Item: `Nc1cccc(-c2c[nH]c3ncc(NCc4cc(F)cc(F)c4)cc23)c1` Test system: Dual specificity tyrosine-phosphorylation-regulated kinase 1A (Homo sapiens) Read-out: Activity Value: ?
88%

---

assay: Cmax in Balb/c mouse at 10 mg/kg, ip measured upto24 hrs by LC/MS/MS analysis; assay type: ADME, organism-based; design: dose 10 mg/kg, time 24 hrs, route ip; details: in vivo
reported endpoint: Cmax (ng/mL)
Provide the reading as a plain figure in ng/mL.

Return reported Cmax; argument: `CN1CCN(c2ccc(C(=O)Nc3cnc4[nH]cc(-c5cncc(F)c5)c4c3)cc2)CC1`
4650
